Measured Kd by item
- target.desc: T1, human Orai1 (human, UniProt Q96D31 1-301)
- T1 construct: on AM1-CHO/hOrai1/hSTIM1-YFP, AM1/hOrai1, HEK-293 transfectants, endogenous on Jurkat and blood cells; in Westerns from cell lysates; also called hOrai1; CRACM1
- assay.method.text: FACS Kd, AM1-CHO/hOrai1/hSTIM1-YFP cells
Could you give me the number in pM? Just the number is fine.

{"binder": "mAb 5F2.1 (antibody, human IgG2, lambda, V domains shown, fully human IgG2 lambda, Campaign 2) VH: QVQLVQSGAEVKKPGASVKVSCKASGYTFTDYYMNWVRQAPGQGLEWMGWINPNSGGTHYAQKFQGRVTMTRDTSISTAYMELSRLRSDDTAVYYCAREYGGYSDWFDPWGQGTLVTVSS VL: QSVLTQPPSVSGAPGQRVTISCTGSRSNIGAGYDVHWYQQLPRTAPKLLIYDNSNRPSGVPDRFSGSKSGSSASLAITGLQAEDEADYYCQSYDNSLSDSVLIGGGTKLTVLG", "Kd / pM": 767}
{"binder": "mAb 2B7.1 (antibody, human IgG2, V domains shown, fully human, Campaign 1) VH: QVQLQQWGAGLLKPSETLSLTCAVYGGSFSGYYWSWIRQPPGKGLEWIGEIDHSGSTNYNPALKSRLTISVDTSKNQFSLKLSSVTAADTAVYYCARAGSGGYEDWFDPWGQGTLVTVSS VL: QSVLTQPPSVSGAPGQRVTISCTGSSSNIGTGYNVHWYQQFPRTDPKLLIYVYNIRPSGVPDRFSGSRSGTSASLAITGLQTEDEADYYCQSYDSSLSGVVFGGGTKLTVLG", "Kd / pM": 133}

Turning to the following binder.
Kd for mAb 5A4.2 (antibody, human IgG2, lambda, V domains shown, fully human IgG2 lambda, Campaign 2) VH: QVQLVQSGAEVKKPGASVKVSCKASGYTFTDYYMNWVRQAPGQGLEWMGWINPNSGGTKYAQKFQGRVTMTRDTSIRTAYMELSRLRSDDTAVYYCSREYGGNSDWFDPWGQGTLVTVSS VL: QSVLTQPPSVSGAPGQRVTISCTGSSSNIGAGYDVHWYQQLPGTAPKLLIYGNSNRPSGVPDRFSGSKSGTSASLAITGLQAEDEADYYCQSYDNRLSDSVVIGGGTKLTVQG is 1200
